tested_system: CFTR ΔF508 mutant (Homo sapiens, UniProt P13569, DEL508-508)
Construct: expressed in transfected cells; host or cells: CFBE41o- (adenoviral transduction)
Sequence (P13569 with tags, fused parts or gaps DEL508-508): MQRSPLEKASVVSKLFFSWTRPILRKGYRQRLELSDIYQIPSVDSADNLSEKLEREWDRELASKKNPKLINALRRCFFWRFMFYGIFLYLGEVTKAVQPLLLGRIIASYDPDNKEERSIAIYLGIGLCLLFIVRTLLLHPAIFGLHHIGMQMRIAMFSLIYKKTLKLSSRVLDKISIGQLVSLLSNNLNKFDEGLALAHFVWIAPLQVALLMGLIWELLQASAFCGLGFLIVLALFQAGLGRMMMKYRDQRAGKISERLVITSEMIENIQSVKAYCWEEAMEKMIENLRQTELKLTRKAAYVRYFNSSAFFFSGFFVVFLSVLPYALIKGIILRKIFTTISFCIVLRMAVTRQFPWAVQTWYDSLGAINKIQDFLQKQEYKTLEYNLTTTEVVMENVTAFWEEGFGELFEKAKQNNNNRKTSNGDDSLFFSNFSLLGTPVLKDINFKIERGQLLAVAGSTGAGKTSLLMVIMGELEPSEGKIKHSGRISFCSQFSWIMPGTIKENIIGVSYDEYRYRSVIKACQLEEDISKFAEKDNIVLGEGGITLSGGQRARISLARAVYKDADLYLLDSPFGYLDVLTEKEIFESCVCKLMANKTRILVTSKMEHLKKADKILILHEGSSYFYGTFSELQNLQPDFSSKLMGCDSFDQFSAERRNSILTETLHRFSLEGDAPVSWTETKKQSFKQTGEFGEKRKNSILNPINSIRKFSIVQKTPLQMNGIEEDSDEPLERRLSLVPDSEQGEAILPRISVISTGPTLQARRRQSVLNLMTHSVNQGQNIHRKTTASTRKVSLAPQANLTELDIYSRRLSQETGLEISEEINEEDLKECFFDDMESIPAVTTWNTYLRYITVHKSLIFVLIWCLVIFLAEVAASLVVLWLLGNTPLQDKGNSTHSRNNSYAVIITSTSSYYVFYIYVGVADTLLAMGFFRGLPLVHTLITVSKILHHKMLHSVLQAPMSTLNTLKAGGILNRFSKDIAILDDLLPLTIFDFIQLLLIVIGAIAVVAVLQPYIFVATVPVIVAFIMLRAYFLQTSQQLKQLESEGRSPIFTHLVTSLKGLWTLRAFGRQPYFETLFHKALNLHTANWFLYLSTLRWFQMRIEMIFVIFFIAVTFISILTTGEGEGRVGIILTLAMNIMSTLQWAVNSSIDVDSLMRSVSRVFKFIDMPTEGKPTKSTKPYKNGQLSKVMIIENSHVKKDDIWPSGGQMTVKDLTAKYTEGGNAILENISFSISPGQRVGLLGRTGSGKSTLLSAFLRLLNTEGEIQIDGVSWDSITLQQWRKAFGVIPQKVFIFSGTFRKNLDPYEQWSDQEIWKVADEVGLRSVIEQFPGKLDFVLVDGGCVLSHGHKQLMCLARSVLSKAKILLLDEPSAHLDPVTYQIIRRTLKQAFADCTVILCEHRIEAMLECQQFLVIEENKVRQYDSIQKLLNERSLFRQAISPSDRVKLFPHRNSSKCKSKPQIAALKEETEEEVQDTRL
assay_protocol: YFP-halide influx assay for the CFTR-ΔF508 mutation (384 well, CFBE41o- cells, FDSS/μCell)
Format: cell-based
experimental_parameters: forskolin 10.67 μM, fluorescence after 36 seconds, read-out: EC50 measured by YFP-halide influx assay for the CFTR-ΔF508
reported_endpoint: pEC50
Note on pEC50: it is the negative log10 of concentration, concentration in mol/L.

Annotate the compound CC1(C)Cc2c(sc(NC(=O)C(CO)C(C)(C)C)c2C(N)=O)C(C)(C)O1 (centres unmarked) [Compound 85] with its measured pEC50.
7.03

Annotate the compound CC1(C)Cc2c(sc(NC(=O)C(CO)CC3CC3)c2C(N)=O)C(C)(C)O1 (single isomer, unassigned) [Compound 97] with its measured pEC50.
6.95

Annotate the compound CC(O)C1(C(=O)Nc2sc3c(c2C(N)=O)CC(C)(C)OC3(C)C)CC1 (centres unmarked) [Compound 79] with its measured pEC50.
7.63

Annotate the compound CN1CCc2[nH]nc(C(=O)Nc3sc4c(c3C(N)=O)CC(C)(C)OC4(C)C)c2C1 [Compound 31] with its measured pEC50.
6.45

Annotate the compound CCCCc1ccc(C(=O)Nc2sc3c(c2C(N)=O)CC(C)(C)OC3(C)C)c(=O)[nH]1 [Compound 139] with its measured pEC50.
7.24

Annotate the compound CC1(C)Cc2c(sc(NC(=O)C(CO)CC3CC3)c2C(N)=O)C(C)(C)O1 (single isomer, unassigned) [Compound 96] with its measured pEC50.
7.01

Annotate the compound CC1(C)Cc2c(sc(NC(=O)C(CO)C(C)(C)C)c2C(N)=O)C(C)(C)O1 (centres unmarked) [Compound 89] with its measured pEC50.
6.50

Annotate the compound CC1(C)Cc2c(sc(NC(=O)c3cc(C(C)(C)O)[nH]n3)c2C(N)=O)C(C)(C)O1 [Compound 64] with its measured pEC50.
6.78

Annotate the compound Cc1ccn2c(=O)c(C(=O)Nc3sc4c(c3C(N)=O)CC(C)(C)OC4(C)C)cnc2c1 [Compound 144] with its measured pEC50.
6.33

Annotate the compound COCC(C)(O)C(=O)Nc1sc2c(c1C(N)=O)CC(C)(C)OC2(C)C (single isomer, unassigned) [Compound 165] with its measured pEC50.
6.84

Annotate the compound CC(CO)C(=O)Nc1sc2c(c1C(N)=O)CC(C)(C)OC2(C)C (centres unmarked) [Compound 70] with its measured pEC50.
6.75

Annotate the compound CC1(C)Cc2c(sc(NC(=O)c3ccno3)c2C(N)=O)C(C)(C)O1 [Compound 133] with its measured pEC50.
6.26

Annotate the compound CC1(C)Cc2c(sc(NC(=O)c3n[nH]c4c3COCC4)c2C(N)=O)C(C)(C)O1 [Compound 32] with its measured pEC50.
7.40

Annotate the compound CC1(C)Cc2c(sc(NC(=O)C3CCNC3=O)c2C(N)=O)C(C)(C)O1 (centres unmarked) [Compound 30] with its measured pEC50.
6.99

Annotate the compound CC1(C)Cc2c(sc(NC(=O)C(O)C(F)(F)F)c2C(N)=O)C(C)(C)O1 (centres unmarked) [Compound 167] with its measured pEC50.
8.12

Annotate the compound Cn1ncc(C(=O)Nc2sc3c(c2C(N)=O)CC(C)(C)OC3(C)C)c1C(F)(F)F [Compound 137] with its measured pEC50.
6.89

Annotate the compound COCc1c[nH]nc1C(=O)Nc1sc2c(c1C(N)=O)CC(C)(C)OC2(C)C [Compound 105] with its measured pEC50.
8.18

Annotate the compound Cn1ncc(C(=O)Nc2sc3c(c2C(N)=O)CC(C)(C)OC3(C)C)c1C(F)F [Compound 118] with its measured pEC50.
6.52

Annotate the compound CC(O)C1(C(=O)Nc2sc3c(c2C(N)=O)CC(C)(C)OC3(C)C)CC1 (centres unmarked) [Compound 59] with its measured pEC50.
8.06

Annotate the compound CC1(C)Cc2c(sc(NC(=O)C3(CO)CC3(C)C)c2C(N)=O)C(C)(C)O1 (centres unmarked) [Compound 91] with its measured pEC50.
7.19

Annotate the compound CC1(C)Cc2c(sc(NC(=O)c3cscn3)c2C(N)=O)C(C)(C)O1 [Compound 128] with its measured pEC50.
7.47

Annotate the compound CC1(C)Cc2c(sc(NC(=O)c3[nH]nc4c3COC4)c2C(N)=O)C(C)(C)O1 [Compound 37] with its measured pEC50.
7.59

Annotate the compound CC1(C)Cc2c(sc(NC(=O)c3cccnc3O)c2C(N)=O)C(C)(C)O1 [Compound 23] with its measured pEC50.
6.72

Annotate the compound COC(=O)C1(C(=O)Nc2sc3c(c2C(N)=O)CC(C)(C)OC3(C)C)CC1 [Compound 12] with its measured pEC50.
6.71

Annotate the compound CC1(C)Cc2c(sc(NC(=O)C3CC3F)c2C(N)=O)C(C)(C)O1 (single isomer, unassigned) [Compound 43] with its measured pEC50.
6.30

Annotate the compound COC(C)(C)C(=O)Nc1sc2c(c1C(N)=O)CC(C)(C)OC2(C)C [Compound 164] with its measured pEC50.
6.19

Annotate the compound CC(C)(O)CC(=O)Nc1sc2c(c1C(N)=O)CC(C)(C)OC2(C)C [Compound 56] with its measured pEC50.
7.10

Annotate the compound Cc1[nH]nc(C(=O)Nc2sc3c(c2C(N)=O)CC(C)(C)OC3(C)C)c1Cl [Compound 34] with its measured pEC50.
8.00

Annotate the compound CC1(C)Cc2c(sc(NC(=O)c3ccn(CC(F)(F)F)n3)c2C(N)=O)C(C)(C)O1 [Compound 121] with its measured pEC50.
7.73

Annotate the compound CC1(C)Cc2c(sc(NC(=O)c3n[nH]cc3C3COCCO3)c2C(N)=O)C(C)(C)O1 (centres unmarked) [Compound 95] with its measured pEC50.
7.61

Annotate the compound CC1(C)Cc2c(sc(NC(=O)c3cocn3)c2C(N)=O)C(C)(C)O1 [Compound 129] with its measured pEC50.
7.11

Annotate the compound CC1(C)Cc2c(sc(NC(=O)C3(O)CCOCC3)c2C(N)=O)C(C)(C)O1 [Compound 154] with its measured pEC50.
7.20
